Tested System: T1, mouse 129 SIRP-α D1 domain (mouse (129 strain), UniProt P97797 32-150)
T1 construct: also called m129
T1 chain: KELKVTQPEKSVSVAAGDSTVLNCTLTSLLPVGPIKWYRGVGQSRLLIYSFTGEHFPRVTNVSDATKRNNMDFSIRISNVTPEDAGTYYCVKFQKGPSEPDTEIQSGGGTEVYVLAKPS
Assay Summary: SPR, Langmuir fit
Recorded Endpoint: koff (s⁻¹)
Number in s⁻¹, nothing else.

### Prompt Which koff value belongs to S16 (scFv, V domains shown, also called clone 16) VH: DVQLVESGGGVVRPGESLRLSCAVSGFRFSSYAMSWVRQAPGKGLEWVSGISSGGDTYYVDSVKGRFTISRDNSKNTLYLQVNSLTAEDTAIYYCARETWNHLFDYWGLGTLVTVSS VL: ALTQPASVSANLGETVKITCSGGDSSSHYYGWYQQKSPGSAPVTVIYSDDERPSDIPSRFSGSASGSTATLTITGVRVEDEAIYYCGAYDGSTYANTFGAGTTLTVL ?
### Response 0.000176
